# assay.overview: gradient 5% acetonitrile 3 min, to 50% in 2 min, to 85% in 15 min, held 3 min, 100 µL/min
# experimental.conditions: column: Zorbax Extend-C18 2.1 x 50 mm; eluents: water / acetonitrile, 0.1% formic acid
This listing pairs molecules with measured RP-LC retention time.

| molecule | RP-LC retention time / s |
| --- | --- |
| O=C(C1CC1)N1CCc2c([nH]c3ccccc23)C1c1ccc(F)cc1 (centres undefined) | 1050 |
| Cc1ccc2nc(NC(=O)CSc3nnc(Cc4c(C)[nH]c(=O)[nH]c4=O)o3)sc2c1 | 643 |
| CCCc1ccc(S(=O)(=O)N2CCC(c3noc(-c4cccc(OC)c4)n3)CC2)cc1 | 1280 |
| CN1C(=O)Cc2cc(S(=O)(=O)NCc3ccc4c(c3)CCN4C(=O)c3ccc(Cl)cc3)ccc21 | 867 |
| O=C(CN1C(=O)NC(c2ccccc2Cl)C2=C1COC2=O)NCc1ccccc1Cl (centres undefined) | 801 |
| CCc1nn2c(ncc3c(=O)n(-c4nccs4)ccc32)c1-c1ccc(F)cc1 | 1320 |
| COc1ccc(-c2cc3n(n2)CCCN(C(=O)c2ccc4nc[nH]c4c2)C3)cc1 | 614 |
| O=C(CN1C(=O)CCCc2cc(S(=O)(=O)N3CCCCC3)ccc21)Nc1ccccc1 | 885 |
| CCOc1ccc(S(=O)(=O)N(CC)CC(=O)N2CCNCC2)cc1 | 623 |

Data origin: the METLIN SMRT retention time set (Domingo-Almenara et al. 2019)
